assay: in vitro; conditions: human, HEK293 Cytotoxicity LC50, HEK 293 + cell free agarose beads
READOUT KIND: CC50

- MOLECULE: "O=[N+]([O-])c1ccc(O)cc1 [4-Nitrophenol, 4-Nitrophenol]"
  READOUT KIND: "CC50"
  REPORTED RESULT: "> 250 µM"
- MOLECULE: "O=P1(N(CCCl)CCCl)NCCCO1 (stereo not drawn) [Cyclophosphamide]"
  READOUT KIND: "CC50"
  REPORTED RESULT: "> 250 µM"
- MOLECULE: "C=CC(N)=O [Acrylamide]"
  READOUT KIND: "CC50"
  REPORTED RESULT: "> 250 µM"
